target: inactive SHP2 catalytic domain Pocketless (K260E+R265S) (Homo sapiens, UniProt Q06124, C459S/K260E/R265S); construct: SHP2 K260E+R265S (Pocketless); 219-528 + C459S; His6 (N); made in house; host or cells: E. coli BL21 (DE3); test: Fluorescence polarization titrations, SHP2 Pocketless; format: binding; conditions: competitive FP titration vs CF-ppIRS1 100 nM, protein fixed; n = 3 technical replicates
Sequence (Q06124 219-528 K260E/R265S/C459S): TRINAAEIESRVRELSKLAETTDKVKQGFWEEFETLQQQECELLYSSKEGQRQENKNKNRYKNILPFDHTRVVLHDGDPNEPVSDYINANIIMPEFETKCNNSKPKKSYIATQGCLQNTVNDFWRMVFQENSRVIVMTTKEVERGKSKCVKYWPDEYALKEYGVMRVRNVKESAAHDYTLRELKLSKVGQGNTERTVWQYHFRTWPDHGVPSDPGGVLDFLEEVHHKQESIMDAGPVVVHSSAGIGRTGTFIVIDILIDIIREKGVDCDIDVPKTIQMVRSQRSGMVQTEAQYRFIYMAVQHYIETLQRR
pKd: −log10 of the molar value.

compound: CSCC[C@H](NC(=O)[C@H](Cc1ccc(OP(=O)(O)O)cc1)NC(=O)[C@H](CC(=O)O)NC(=O)[C@H](CO)NC(=O)[C@H](Cc1c[nH]cn1)NC(=O)[C@H](CC(C)C)NC(=O)[C@H](CC(C)C)NC(=O)[C@H](CCCNC(=N)N)NC(=O)[C@H](CO)NC(=O)[C@@H](N)CCCNC(=N)N)C(=O)N[C@@H](CC(N)=O)C(=O)N[C@@H](CCSC)C(=O)N[C@H](C(=O)N1CCC[C@H]1C(=O)N[C@@H](CCCNC(=N)N)C(=O)N[C@@H](CCCNC(=N)N)C(=O)O)[C@@H](C)O [p0CD28]
pKd: 4.46
--
compound: CSCC[C@H](NC(=O)[C@H](Cc1ccc(OP(=O)(O)O)cc1)NC(=O)[C@H](CC(=O)O)NC(=O)[C@H](CO)NC(=O)[C@H](Cc1c[nH]cn1)NC(=O)[C@H](CC(C)C)NC(=O)[C@H](CC(C)C)NC(=O)[C@H](CCCNC(=N)N)NC(=O)[C@H](CO)NC(=O)[C@@H](N)CCCNC(=N)N)C(=O)N[C@@H](CC(N)=O)C(=O)N[C@@H](CCSC)C(=O)N[C@H](C(=O)N1CCC[C@H]1C(=O)N[C@@H](CCCNC(=N)N)C(=O)N[C@@H](CCCNC(=N)N)C(=O)O)[C@@H](C)OP(=O)(O)O [ppCD28]
pKd: 5.25

----------
Catalogue of Kd readings, one per entry.
biological target: inactive SHP2 catalytic domain Loopinv (R362E) (Homo sapiens, UniProt Q06124, C459S/R362E); construct: SHP2 R362E (Loopinv); 219-528 + C459S; His6 (N); test: Fluorescence polarization titrations, SHP2 Loopinv; conditions: competitive FP titration vs CF-ppIRS1 100 nM, protein fixed; n = 3 technical replicates
Sequence (Q06124 219-528 R362E/C459S): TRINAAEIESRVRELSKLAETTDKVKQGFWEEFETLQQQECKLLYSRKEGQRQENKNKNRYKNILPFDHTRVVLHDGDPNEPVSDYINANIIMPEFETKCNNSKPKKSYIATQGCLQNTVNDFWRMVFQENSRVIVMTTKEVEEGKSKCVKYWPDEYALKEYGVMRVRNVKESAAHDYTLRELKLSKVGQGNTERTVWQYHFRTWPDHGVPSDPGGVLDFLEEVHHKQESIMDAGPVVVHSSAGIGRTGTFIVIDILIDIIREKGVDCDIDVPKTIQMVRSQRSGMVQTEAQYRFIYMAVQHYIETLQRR

compound: CSCC[C@H](NC(=O)[C@@H]1CCCN1C(=O)[C@H](CCSC)NC(=O)[C@H](Cc1ccc(OP(=O)(O)O)cc1)NC(=O)[C@H](CC(=O)O)NC(=O)CNC(=O)[C@H](CO)NC(=O)CNC(=O)[C@H](CCCCN)NC(=O)[C@H](CCCNC(=N)N)NC(=O)CN)C(=O)N[C@@H](CO)C(=O)N1CCC[C@H]1C(=O)N[C@@H](CCCCN)C(=O)N[C@@H](CO)C(=O)O [p0IRS1]
unit descriptor: µM
Kd: 61.8

compound: CC[C@H](C)[C@H](NC(=O)[C@H](CC(N)=O)NC(=O)[C@@H](NC(=O)[C@H](Cc1ccc(OP(=O)(O)O)cc1)NC(=O)[C@H](CCC(=O)O)NC(=O)CNC(=O)[C@@H]1CCCN1C(=O)[C@H](COP(=O)(O)O)NC(=O)[C@H](CCCCN)NC(=O)[C@@H]1CCCN1C(=O)[C@@H](N)CCC(=O)O)C(C)C)C(=O)N[C@@H](CCC(=O)O)C(=O)N[C@@H](Cc1ccccc1)C(=O)O [ppSRev-IRS1]
unit descriptor: µM
Kd: 0.67

compound: CSCC[C@H](NC(=O)[C@H](Cc1ccc(OP(=O)(O)O)cc1)NC(=O)[C@H](CC(=O)O)NC(=O)[C@H](CO)NC(=O)[C@H](Cc1c[nH]cn1)NC(=O)[C@H](CC(C)C)NC(=O)[C@H](CC(C)C)NC(=O)[C@H](CCCNC(=N)N)NC(=O)[C@H](CO)NC(=O)[C@@H](N)CCCNC(=N)N)C(=O)N[C@@H](CC(N)=O)C(=O)N[C@@H](CCSC)C(=O)N[C@H](C(=O)N1CCC[C@H]1C(=O)N[C@@H](CCCNC(=N)N)C(=O)N[C@@H](CCCNC(=N)N)C(=O)O)[C@@H](C)O [p0CD28]
unit descriptor: µM
Kd: 45.7

----------
Below is a list of entries, each paired with its recorded pKd value.
biological target: PTPRε first phosphatase domain, C335S (Homo sapiens, UniProt P23469, C335S); construct: PTPRε (P23469 first domain: 107–399); MBP; assay: biochemical; conditions: competitive FP titration vs CF-ppIRS1 100 nM, protein fixed, unlabelled peptide varied; n = 3 technical replicates
Sequence (P23469 107-399 C335S): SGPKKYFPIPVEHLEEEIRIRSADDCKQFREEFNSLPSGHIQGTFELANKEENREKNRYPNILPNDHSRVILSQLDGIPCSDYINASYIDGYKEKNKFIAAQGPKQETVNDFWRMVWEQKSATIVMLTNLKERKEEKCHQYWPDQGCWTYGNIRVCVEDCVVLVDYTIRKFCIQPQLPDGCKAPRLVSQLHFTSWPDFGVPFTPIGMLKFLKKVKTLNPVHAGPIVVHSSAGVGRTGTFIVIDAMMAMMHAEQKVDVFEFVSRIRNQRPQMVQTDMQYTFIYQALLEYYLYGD
pKd: −log10 of the molar value.
parameter measured: pKd

molecule: CSCC[C@H](NC(=O)[C@H](Cc1ccc(OP(=O)(O)O)cc1)NC(=O)[C@H](CC(=O)O)NC(=O)[C@H](CO)NC(=O)[C@H](Cc1c[nH]cn1)NC(=O)[C@H](CC(C)C)NC(=O)[C@H](CC(C)C)NC(=O)[C@H](CCCNC(=N)N)NC(=O)[C@H](CO)NC(=O)[C@@H](N)CCCNC(=N)N)C(=O)N[C@@H](CC(N)=O)C(=O)N[C@@H](CCSC)C(=O)N[C@H](C(=O)N1CCC[C@H]1C(=O)N[C@@H](CCCNC(=N)N)C(=O)N[C@@H](CCCNC(=N)N)C(=O)O)[C@@H](C)OP(=O)(O)O
value: 5.91
--
molecule: CSCC[C@H](NC(=O)[C@@H]1CCCN1C(=O)[C@H](CCSC)NC(=O)[C@H](Cc1ccc(OP(=O)(O)O)cc1)NC(=O)[C@H](CC(=O)O)NC(=O)CNC(=O)[C@H](CO)NC(=O)CNC(=O)[C@H](CCCCN)NC(=O)[C@H](CCCNC(=N)N)NC(=O)CN)C(=O)N[C@@H](COP(=O)(O)O)C(=O)N1CCC[C@H]1C(=O)N[C@@H](CCCCN)C(=O)N[C@@H](CO)C(=O)O
value: 4.78
--
molecule: CSCC[C@H](NC(=O)[C@@H]1CCCN1C(=O)[C@H](CCSC)NC(=O)[C@H](Cc1ccc(OP(=O)(O)O)cc1)NC(=O)[C@H](CC(=O)O)NC(=O)CNC(=O)[C@H](CO)NC(=O)CNC(=O)[C@H](CCCCN)NC(=O)[C@H](CCCNC(=N)N)NC(=O)CN)C(=O)N[C@@H](CO)C(=O)N1CCC[C@H]1C(=O)N[C@@H](CCCCN)C(=O)N[C@@H](CO)C(=O)O
value: 4.44
--
molecule: CSCC[C@H](NC(=O)[C@H](Cc1ccc(OP(=O)(O)O)cc1)NC(=O)[C@H](CC(=O)O)NC(=O)[C@H](CO)NC(=O)[C@H](Cc1c[nH]cn1)NC(=O)[C@H](CC(C)C)NC(=O)[C@H](CC(C)C)NC(=O)[C@H](CCCNC(=N)N)NC(=O)[C@H](CO)NC(=O)[C@@H](N)CCCNC(=N)N)C(=O)N[C@@H](CC(N)=O)C(=O)N[C@@H](CCSC)C(=O)N[C@H](C(=O)N1CCC[C@H]1C(=O)N[C@@H](CCCNC(=N)N)C(=O)N[C@@H](CCCNC(=N)N)C(=O)O)[C@@H](C)O
value: 5.93

----------
molecular target: inactive SHP2 catalytic domain Loopmut (K364E) (Homo sapiens, UniProt Q06124, C459S/K364E); construct: SHP2 K364E (Loopmut); 219-528 + C459S; His6 (N); made in house; host or cells: E. coli BL21 (DE3); experiment: Fluorescence polarization titrations, SHP2 Loopmut; assay type: binding; settings: competitive FP titration vs CF-ppIRS1 100 nM, protein fixed; n = 3 technical replicates
Sequence (Q06124 219-528 K364E/C459S): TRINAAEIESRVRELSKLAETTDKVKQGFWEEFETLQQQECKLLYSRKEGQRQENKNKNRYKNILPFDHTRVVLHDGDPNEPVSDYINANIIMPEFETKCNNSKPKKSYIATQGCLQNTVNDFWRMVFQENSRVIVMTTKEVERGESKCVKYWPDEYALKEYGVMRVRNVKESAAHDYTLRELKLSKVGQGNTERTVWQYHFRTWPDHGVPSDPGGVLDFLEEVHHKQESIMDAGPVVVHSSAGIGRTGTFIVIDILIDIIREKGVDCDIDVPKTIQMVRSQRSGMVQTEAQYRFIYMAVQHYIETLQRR
parameter measured: Kd (µM)

molecule: CSCC[C@H](NC(=O)[C@H](Cc1ccc(OP(=O)(O)O)cc1)NC(=O)[C@H](CC(=O)O)NC(=O)[C@H](CO)NC(=O)[C@H](Cc1c[nH]cn1)NC(=O)[C@H](CC(C)C)NC(=O)[C@H](CC(C)C)NC(=O)[C@H](CCCNC(=N)N)NC(=O)[C@H](CO)NC(=O)[C@@H](N)CCCNC(=N)N)C(=O)N[C@@H](CC(N)=O)C(=O)N[C@@H](CCSC)C(=O)N[C@H](C(=O)N1CCC[C@H]1C(=O)N[C@@H](CCCNC(=N)N)C(=O)N[C@@H](CCCNC(=N)N)C(=O)O)[C@@H](C)O
parameter measured: Kd
unit descriptor: µM
value: 20.5

----------
target: inactive SHP2 catalytic domain Pocketless (K260E+R265S) (Homo sapiens, UniProt Q06124, C459S/K260E/R265S); construct: SHP2 K260E+R265S (Pocketless); 219-528 + C459S; His6 (N); assay: Fluorescence polarization titrations, SHP2 Pocketless; settings: competitive FP titration vs CF-ppIRS1 100 nM, protein fixed; n = 3 technical replicates
parameter measured: Kd (µM)

molecule: CC[C@H](C)[C@H](NC(=O)[C@H](CC(N)=O)NC(=O)[C@@H](NC(=O)[C@H](Cc1ccc(OP(=O)(O)O)cc1)NC(=O)[C@H](CCC(=O)O)NC(=O)CNC(=O)[C@@H]1CCCN1C(=O)[C@H](CO)NC(=O)[C@H](CCCCN)NC(=O)[C@@H]1CCCN1C(=O)[C@@H](N)CCC(=O)O)C(C)C)C(=O)N[C@@H](CCC(=O)O)C(=O)N[C@@H](Cc1ccccc1)C(=O)O
unit descriptor: µM
value: 17.7
--
molecule: CC[C@H](C)[C@H](NC(=O)[C@H](CC(N)=O)NC(=O)[C@@H](NC(=O)[C@H](Cc1ccc(OP(=O)(O)O)cc1)NC(=O)[C@H](CCC(=O)O)NC(=O)CNC(=O)[C@@H]1CCCN1C(=O)[C@H](COP(=O)(O)O)NC(=O)[C@H](CCCCN)NC(=O)[C@@H]1CCCN1C(=O)[C@@H](N)CCC(=O)O)C(C)C)C(=O)N[C@@H](CCC(=O)O)C(=O)N[C@@H](Cc1ccccc1)C(=O)O
unit descriptor: µM
value: 1.91
--
molecule: CSCC[C@H](NC(=O)[C@@H]1CCCN1C(=O)[C@H](CCSC)NC(=O)[C@H](Cc1ccc(OP(=O)(O)O)cc1)NC(=O)[C@H](CC(=O)O)NC(=O)CNC(=O)[C@H](CO)NC(=O)CNC(=O)[C@H](CCCCN)NC(=O)[C@H](CCCNC(=N)N)NC(=O)CN)C(=O)N[C@@H](CO)C(=O)N1CCC[C@H]1C(=O)N[C@@H](CCCCN)C(=O)N[C@@H](CO)C(=O)O
unit descriptor: µM
value: 191
--
molecule: CSCC[C@H](NC(=O)[C@@H]1CCCN1C(=O)[C@H](CCSC)NC(=O)[C@H](Cc1ccc(OP(=O)(O)O)cc1)NC(=O)[C@H](CC(=O)O)NC(=O)CNC(=O)[C@H](CO)NC(=O)CNC(=O)[C@H](CCCCN)NC(=O)[C@H](CCCNC(=N)N)NC(=O)CN)C(=O)N[C@@H](COP(=O)(O)O)C(=O)N1CCC[C@H]1C(=O)N[C@@H](CCCCN)C(=O)N[C@@H](CO)C(=O)O
unit descriptor: µM
value: 6.36
